System: Enterococcus faecalis
experiment.summary: Antibacterial activity against vancomycin-sensitive Enterococcus faecalis ATCC 29212
Format: functional
Just a reminder that ties go to class 0: only MIC strictly below 1 mg/L counts as class 1.

chem.smiles	class
CC(=O)NC[C@H]1CN(c2cc(F)c3c(c2)SC[C@@H]2CCCN32)C(=O)O1	class 0
C/C(S)=N/C[C@H]1CN(c2cc(F)c3c(c2)SC[C@@H]2CCCN32)C(=O)O1	class 1
CN[C@H](CC(C)C)C(=O)N[C@H]1C(=O)N[C@@H](CC(N)=O)C(=O)N[C@H]2C(=O)N[C@H]3C(=O)N[C@H](C(=O)N[C@H](C(=O)O)c4cc(O)cc(O)c4-c4cc3ccc4O)[C@H](O)c3ccc(c(Cl)c3)Oc3cc2cc(c3O[C@@H]2O[C@H](CO)[C@@H](O)[C@H](O)[C@H]2O[C@H]2C[C@](C)(N)[C@H](O)[C@H](C)O2)Oc2ccc(cc2Cl)[C@H]1O	class 0
CC(=O)NC[C@H]1CN(c2ccc3c(c2)N(C=O)C[C@@H]2CCCN32)C(=O)O1	class 0
CC(=O)NC[C@H]1CN(c2cc(F)c3c(c2)N(C)C[C@@H]2CCCN32)C(=O)O1	class 0
COC(=S)NC[C@H]1CN(c2cc(F)c3c(c2)N(C)C[C@@H]2CCCN32)C(=O)O1	class 0
COC(=S)NC[C@H]1CN(c2ccc3c(c2)SC[C@@H]2CCCN32)C(=O)O1	class 1
CC(=O)NC[C@H]1CN(c2ccc3c(c2)N(C(C)=O)C[C@@H]2CCCN32)C(=O)O1	class 0
CC(=O)NC[C@H]1CN(c2ccc3c(c2)N(C(=O)OCc2ccccc2)C[C@@H]2CCCN32)C(=O)O1	class 0
CC(=O)NC[C@H]1CN(c2ccc3c(c2)SC[C@@H]2CCCN32)C(=O)O1	class 0
CC(=O)NC[C@H]1CN(c2ccc3c(c2)OC[C@@H]2CCCN32)C(=O)O1	class 0
CC(=O)NC[C@H]1CN(c2ccc3c(c2)N(C(=O)CCl)C[C@@H]2CCCN32)C(=O)O1	class 0
CC(=O)NC[C@H]1CN(c2ccc3c(c2)S(=O)(=O)C[C@@H]2CCCN32)C(=O)O1	class 0
